Molecular target: c-Met (Homo sapiens)
Construct: Kinases are expressed as either kinase domains or full length constructs; made in house
Test: Kinase inhibition assay (33P transfer), c-Met
Type: biochemical
Settings: Table 2, kinase inhibition class; read-out: Met-1
reported-metric: IC50

The following compounds have reported results that may help.
COc1cccc(Nc2ncnc(Nc3cc(OC)c(OC)c(OC)c3)n2)c1 = > 11.7 µM
COc1cc(Nc2ncnc(Nc3cc(-c4ccco4)n[nH]3)n2)cc(OC)c1OC = < 0.977 µM
COc1cc(Nc2ncnc(-n3cc(OC(C)=O)c4ccccc43)n2)cc(OC)c1OC = > 10.3 µM
Cc1cccc(Nc2ncnc(-n3cccc3)n2)c1C = > 17 µM

Hi! Can you tell me IC50 for each of these compounds?
1. COc1ccc(Nc2ncnc(-c3cccs3)n2)cc1OC
2. COc1cc(Nc2ncnc(-n3cnc4ccccc43)n2)cc(OC)c1OC

Result block:
> 14.3 µM
1.06 to 6.34 µM

###

Biological target: c-Met (Homo sapiens, UniProt P08581)
Construct: Kinases are expressed as either kinase domains or full length constructs; made in house
Sequence (P08581 25-1390): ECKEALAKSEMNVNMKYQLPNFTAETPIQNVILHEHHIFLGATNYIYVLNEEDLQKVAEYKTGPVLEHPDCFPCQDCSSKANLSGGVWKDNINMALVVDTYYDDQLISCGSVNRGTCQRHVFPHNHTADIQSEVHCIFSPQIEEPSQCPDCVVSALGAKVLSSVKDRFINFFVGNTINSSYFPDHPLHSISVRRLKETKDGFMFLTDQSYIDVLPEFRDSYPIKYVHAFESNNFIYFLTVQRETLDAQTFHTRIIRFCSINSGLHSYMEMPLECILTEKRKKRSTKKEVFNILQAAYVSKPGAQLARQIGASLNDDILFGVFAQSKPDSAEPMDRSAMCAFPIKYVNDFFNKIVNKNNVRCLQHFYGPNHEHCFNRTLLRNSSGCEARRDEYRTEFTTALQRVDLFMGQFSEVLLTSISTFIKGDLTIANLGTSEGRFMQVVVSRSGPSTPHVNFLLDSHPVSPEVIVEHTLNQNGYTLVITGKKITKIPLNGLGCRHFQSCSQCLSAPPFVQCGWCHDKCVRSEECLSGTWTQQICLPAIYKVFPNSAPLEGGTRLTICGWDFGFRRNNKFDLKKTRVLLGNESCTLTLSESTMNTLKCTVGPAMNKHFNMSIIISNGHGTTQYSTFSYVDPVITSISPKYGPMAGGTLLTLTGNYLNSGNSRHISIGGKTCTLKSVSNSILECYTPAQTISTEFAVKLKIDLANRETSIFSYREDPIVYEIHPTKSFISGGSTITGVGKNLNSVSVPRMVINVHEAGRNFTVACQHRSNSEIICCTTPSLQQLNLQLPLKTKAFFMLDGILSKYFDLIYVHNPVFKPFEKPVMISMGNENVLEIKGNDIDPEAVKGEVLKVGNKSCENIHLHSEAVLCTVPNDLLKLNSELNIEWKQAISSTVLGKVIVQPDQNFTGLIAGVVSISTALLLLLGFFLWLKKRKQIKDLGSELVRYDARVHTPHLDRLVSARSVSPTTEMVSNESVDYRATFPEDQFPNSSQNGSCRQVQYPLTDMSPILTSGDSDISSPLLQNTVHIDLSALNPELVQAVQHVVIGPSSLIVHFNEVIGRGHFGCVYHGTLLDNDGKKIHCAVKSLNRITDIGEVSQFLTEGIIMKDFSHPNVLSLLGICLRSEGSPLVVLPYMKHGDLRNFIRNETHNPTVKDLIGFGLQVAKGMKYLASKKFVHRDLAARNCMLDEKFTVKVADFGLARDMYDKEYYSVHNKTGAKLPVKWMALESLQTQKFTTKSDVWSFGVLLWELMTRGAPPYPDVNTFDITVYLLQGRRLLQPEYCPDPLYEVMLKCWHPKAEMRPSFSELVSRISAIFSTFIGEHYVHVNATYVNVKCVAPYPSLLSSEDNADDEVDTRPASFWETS
Test: Kinase inhibition assay (33P transfer), c-Met
Type: biochemical
Conditions: Table 2, kinase inhibition class; read-out: Met-1
reported-metric: IC50

The following compounds have reported results that may help.
COc1cc(Nc2ncnc(Nc3cccc(F)c3)n2)cc(OC)c1OC = 1.08 to 6.46 µM
COc1cc(Nc2ncnc(N(CC(=O)O)c3ccc4c(c3)OCO4)n2)cc(OC)c1OC = > 9.88 µM
CC1CCc2ccccc2N1c1ncnc(N2c3ccccc3CCC2C)n1 (centres unmarked) = > 12.1 µM
COc1cc(Nc2ncnc(-n3c(Nc4cc(OC)c(OC)c(OC)c4)nc4ccccc43)n2)cc(OC)c1OC = > 8.04 µM

Query block: Data request, read-out IC50, for O=c1[nH]c2ccccc2n1-c1ncnc(Nc2cccc(Cl)c2)n1
Result block: > 13.3 µM

###

Reported pIC50, Tek (Homo sapiens).
pIC50: −log10 of the molar value.

The following compounds have reported results that may help.
COc1cccc(Nc2ncnc(Nc3cc(OC)c(OC)c(OC)c3)n2)c1 = < 4.93
COc1cc(Nc2ncnc(Nc3cccc(Cl)c3)n2)cc(OC)c1OC = 5.04 to 5.21
COc1cc(Nc2ncnc(-n3c(NCc4ccccc4Cl)nc4ccccc43)n2)cc(OC)c1OC = 5.06 to 5.17
COc1ccc2c(ccn2-c2ncnc(Nc3cc(OC)c(OC)c(OC)c3)n2)c1 = < 4.96

Hi! Can you tell me pIC50 for each of these compounds?
1. COc1cc(Nc2ncnc(-n3c(N)nc4ccccc43)n2)cc(OC)c1OCCN1CCOCC1
2. COc1cc(Nc2ncnc(N3CCCCC3)n2)cc(OC)c1OC
3. COc1cc(Nc2ncnc(-n3c(NCCc4ccncc4)nc4ccccc43)n2)cc(OC)c1OC
4. COc1cc(Nc2ncnc(-n3cc(CCO)c4ccccc43)n2)cc(OC)c1OC
5. CC(C)(C)OC(=O)NCc1cccc(Nc2ncnc(Nc3cc(-c4ccco4)n[nH]3)n2)c1

Result block:
1. 5.04 to 5.15
2. < 4.89
3. < 5.04
4. < 4.97
5. 5.11 to 5.27

Hi! Can you tell me pIC50 for each of these compounds?
1. COc1cc(Nc2ncnc(-n3ccc4ccc(Cl)cc43)n2)cc(OC)c1OC
2. COc1cc(Nc2ncnc(-n3ccc4c(OC)cccc43)n2)cc(OC)c1OC

Result block:
1: < 4.96; 2: < 4.96

src = patent US7074789B2
